// provenance: PubChem BioAssay AID256

tested on: CD2F1 mice, L1210 leukemia ip, survival T/C; assay: NCI In Vivo Anticancer Drug Screen. Data for tumor model L1210 Leukemia (intraperitoneal) in CD2F1 (CDF1) mice; conditions: endpoint: mean survival time; dose: 200.0 mg/kg/injection; schedule: Q01DX001 (ip); vehicle: Klucel (hydroxypropylcellulose) (HPC); higher = longer survival
Inconclusive results and toxic doses are left out.
Reported T/C by item:

{"columns": ["compound", "T/C"],
 "data": [
  ["CC(C)(C)c1cc(C=C(C#N)C#N)cc(C(C)(C)C)c1O", "102 % of control"],
  ["C=C(C)CS(=O)(=O)Cc1ccccc1", "102 % of control"],
  ["ClCCN(CCCl)c1ccc(N=Nc2ccc(Cl)cc2)cc1", "94 % of control"],
  ["O=C(O)CCC(NC(=O)c1ccccc1)C(=O)O (centres undefined)", "96 % of control"],
  ["Cc1noc(C)c1CC1(c2ccccc2)CCCCC1=O (centres undefined)", "92 % of control"],
  ["C=CCOc1ccc(Cl)cc1", "92 % of control"],
  ["O=[N+]([O-])c1ccc(/C=C/C=C/C2(CCl)OCCO2)cc1", "112 % of control"],
  ["O=S(=O)(Cc1ccccc1)CC(Br)CBr (centres undefined)", "103 % of control"],
  ["CCOC(=O)c1oc(C)nc1C", "98 % of control"]
]}

###

test system: CD2F1 mice, L1210 leukemia ip, survival T/C; test: NCI In Vivo Anticancer Drug Screen. Data for tumor model L1210 Leukemia (intraperitoneal) in CD2F1 (CDF1) mice; settings: endpoint: mean survival time; dose: 100.0 mg/kg/injection; schedule: Q04DX003 (ip); vehicle: saline; higher = longer survival
Toxic doses and inconclusive results are not listed.
metric.name: T/C

{"columns": ["molecule", "result"],
 "data": [
  ["C=CC(N)=O", "97 % of control"],
  ["Oc1ccccc1C1=CCCCCC1", "95 % of control"],
  ["CC(=O)N(CC(C)C)N=O", "102 % of control"],
  ["O=C1CCC(=O)N1CO", "106 % of control"],
  ["CCN1CCC(CC)(CN2c3ccccc3Sc3ccc(Cl)cc32)C1 (stereo unspecified)", "100 % of control"],
  ["Cc1nc(C(N)=O)c(=O)[nH]c1C", "101 % of control"],
  ["Clc1nc2ccccc2[nH]1", "98 % of control"],
  ["CCC(=O)C(CC)(c1ccc(OC(C)=O)cc1)c1ccc(OC(C)=O)cc1", "94 % of control"],
  ["O=S(=O)(/C=C(/Br)c1ccccc1)c1ccccc1", "100 % of control"],
  ["O=C(O)CCC(=O)NO", "109 % of control"],
  ["CCCC1=NC(C)(C)CO1", "92 % of control"],
  ["CNNCCC(=O)NC(C)C", "101 % of control"],
  ["C=CCS(=O)(=O)O", "100 % of control"],
  ["C=COCCSCC", "98 % of control"],
  ["Cn1ncc2c1C(=O)c1nc(-c3ccccc3)c(-c3ccccc3)nc1C2=O", "92 % of control"],
  ["CC(C)=CCC/C(C)=C/CN", "86 % of control"]
]}
